Entries annotated with measured IC50
# System Under Test: human alpha2A receptors (Homo sapiens, UniProt P08913)
# Sequence (P08913 whole entry): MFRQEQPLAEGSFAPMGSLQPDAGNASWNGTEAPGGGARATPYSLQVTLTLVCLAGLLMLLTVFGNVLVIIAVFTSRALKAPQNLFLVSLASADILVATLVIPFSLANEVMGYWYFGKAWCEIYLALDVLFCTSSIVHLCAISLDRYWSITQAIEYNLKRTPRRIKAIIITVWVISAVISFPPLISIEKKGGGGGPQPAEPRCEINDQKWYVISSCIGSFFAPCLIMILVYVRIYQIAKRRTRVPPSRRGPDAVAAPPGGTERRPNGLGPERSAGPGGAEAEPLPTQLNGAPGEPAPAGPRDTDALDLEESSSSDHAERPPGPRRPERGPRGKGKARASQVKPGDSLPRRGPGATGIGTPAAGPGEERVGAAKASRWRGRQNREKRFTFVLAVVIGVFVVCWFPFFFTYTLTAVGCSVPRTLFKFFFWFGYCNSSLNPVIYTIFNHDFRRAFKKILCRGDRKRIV
# Assay Info: cell-based
Where a name gives a salt, the structure may show the parent alone.
Measure: IC50

{"Compound": "CN1CCCN([C@H]2CCCN(C[C@H]3COc4ccccc4O3)C2)C1=O", "Result": "> 10 µM"}
{"Compound": "CN1C(=O)C(=O)N([C@H]2CCCN(C[C@H]3COc4ccccc4O3)C2)C1=O", "Result": "> 10 µM"}
{"Compound": "CCc1nc2ccc(F)cc2n1[C@H]1CCCN(C[C@H]2COc3ccccc3O2)C1", "Result": "4.33 µM"}
{"Compound": "Cc1nc2ncccc2n1[C@H]1CCCN(C[C@H]2COc3ccccc3O2)C1", "Result": "> 10 µM"}
{"Compound": "Cn1ncc2c1C(=O)N([C@H]1CCCN(C[C@H]3COc4ccccc4O3)C1)C2", "Result": "> 10 µM"}
{"Compound": "O=C1C=C(c2ccc(F)cc2)CN1[C@H]1CCCN(C[C@H]2COc3ccccc3O2)C1", "Result": "> 10 µM"}
{"Compound": "CC(C)N1C(=O)C(=O)N([C@H]2CCCN(C[C@H]3COc4ccccc4O3)C2)C1=O", "Result": "6.59 µM"}
{"Compound": "Cn1ncc2c1CN([C@H]1CCCN(C[C@H]3COc4ccccc4O3)C1)C2=O", "Result": "> 10 µM"}
{"Compound": "O=C1C2=C(CCCC2)C(=O)N1[C@H]1CCCN(C[C@H]2COc3ccccc3O2)C1 [example 94, hydrochloride]", "Result": "> 10 µM"}
{"Compound": "O=C1CN(CC2CC2)C(=O)N1[C@H]1CCCN(C[C@H]2COc3ccccc3O2)C1", "Result": "> 10 µM"}
{"Compound": "Cn1c(=O)n([C@H]2CCCN(C[C@H]3COc4ccccc4O3)C2)c2ccccc21", "Result": "> 10 µM"}
{"Compound": "O=C1C2CC2(c2ccccc2)C(=O)N1[C@H]1CCCN(C[C@H]2COc3ccccc3O2)C1 (stereo partly drawn)", "Result": "> 10 µM"}
{"Compound": "CCC1(c2ccccc2)C(=O)N([C@H]2CCCN(C[C@H]3COc4ccccc4O3)C2)C(=O)N1C (stereo partly drawn)", "Result": "0.185 µM"}
{"Compound": "O=C1c2ccc(F)cc2C(=O)N1[C@H]1CCCN(C[C@H]2COc3ccccc3O2)C1", "Result": "> 10 µM"}
{"Compound": "COc1cccc2c1CN([C@H]1CCCN(C[C@H]3COc4ccccc4O3)C1)C2=O", "Result": "> 10 µM"}
{"Compound": "Cc1nc2cncnc2n1[C@H]1CCCN(C[C@H]2COc3ccccc3O2)C1", "Result": "> 10 µM"}
{"Compound": "O=C1c2cccc(F)c2CN1[C@H]1CCCN(C[C@H]2COc3ccccc3O2)C1 [example 57, hydrochloride]", "Result": "> 10 µM"}
{"Compound": "O=C1OC(c2ccc(F)cc2)CN1[C@H]1CCCN(C[C@H]2COc3ccccc3O2)C1 (stereo partly drawn)", "Result": "1.4 µM"}
{"Compound": "O=C1CC(c2ccccc2)CN1[C@H]1CCCN(C[C@H]2COc3ccccc3O2)C1 (stereo partly drawn)", "Result": "5.21 µM"}
{"Compound": "CC(C)N1C(=O)N([C@H]2CCCN(C[C@H]3COc4ccccc4O3)C2)C(=O)C1(C)C", "Result": "> 10 µM"}
{"Compound": "CC(C)(C)C1CN([C@H]2CCCN(C[C@H]3COc4ccccc4O3)C2)C(=O)O1 (stereo partly drawn)", "Result": "8.51 µM"}
{"Compound": "CN(C)C(=O)CN1C(=O)N([C@H]2CCCN(C[C@H]3COc4ccccc4O3)C2)C(=O)C12CC2", "Result": "> 10 µM"}
{"Compound": "C[C@@H]1NC(=O)N([C@H]2CCCN(C[C@H]3COc4ccccc4O3)C2)C1=O", "Result": "> 10 µM"}
{"Compound": "CNCc1nc2ccc(Cl)cc2n1[C@H]1CCCN(C[C@H]2COc3ccccc3O2)C1", "Result": "> 10 µM"}
{"Compound": "O=C1NC(c2ccccc2)(c2ccccc2)CN1[C@H]1CCCN(C[C@H]2COc3ccccc3O2)C1", "Result": "1.33 µM"}
{"Compound": "O=C1CN(C2CC2)C(=O)N1[C@H]1CCCN(C[C@H]2COc3ccccc3O2)C1", "Result": "> 10 µM"}
{"Compound": "Cc1nc2ccc(Cl)cc2n1[C@H]1CCCN(C[C@H]2COc3ccccc3O2)C1", "Result": "11.1 µM"}

###

# System Under Test: human alpha2C receptors (Homo sapiens)
# Sequence (P18825 whole entry): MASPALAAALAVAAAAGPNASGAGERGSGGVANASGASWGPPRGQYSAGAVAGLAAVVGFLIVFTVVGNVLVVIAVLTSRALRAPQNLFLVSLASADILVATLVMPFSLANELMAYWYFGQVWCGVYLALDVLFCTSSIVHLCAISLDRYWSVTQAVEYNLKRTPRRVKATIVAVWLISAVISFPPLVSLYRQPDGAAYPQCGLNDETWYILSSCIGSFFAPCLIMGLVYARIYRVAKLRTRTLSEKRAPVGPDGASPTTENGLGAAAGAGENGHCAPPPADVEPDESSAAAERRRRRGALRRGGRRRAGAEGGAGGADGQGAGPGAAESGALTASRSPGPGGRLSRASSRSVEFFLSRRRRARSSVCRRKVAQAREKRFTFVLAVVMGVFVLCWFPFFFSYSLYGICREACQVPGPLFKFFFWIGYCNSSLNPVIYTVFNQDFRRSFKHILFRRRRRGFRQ
# Assay Info: Determination of alpha2C antagonistic activity in vitro (FLIPR calcium assay)
# Assay Context: Alpha 2C Adrenaline Kb, Kb calculated from IC50 with the Cheng-Prusoff equation; adrenaline as agonist; CHO cells, human alpha2C
Counter-ions that a name gives are not always drawn.

{"Compound": "Clc1ccc2ncn([C@H]3CCCN(C[C@H]4COc5ccccc5O4)C3)c2c1 [example 89]", "Unit Info": "nM", "Qualifying Sign": "<", "Kb": 0.01}
{"Compound": "CN1CCN([C@H]2CCCN(C[C@H]3COc4ccccc4O3)C2)C1=O [example 101]", "Unit Info": "nM", "Qualifying Sign": "=", "Kb": 0.08}
{"Compound": "CCC1(CC)OC(=O)N([C@H]2CCCN(C[C@H]3COc4ccccc4O3)C2)C1=O [example 5]", "Unit Info": "nM", "Qualifying Sign": "=", "Kb": 0.01}
{"Compound": "CCc1nc2cccnc2n1[C@H]1CCCN(C[C@H]2COc3ccccc3O2)C1 [example 159]", "Unit Info": "nM", "Qualifying Sign": "=", "Kb": 0.001}
{"Compound": "O=S1(=O)Cc2ccccc2N1[C@H]1CCCN(C[C@H]2COc3ccccc3O2)C1 [example 25]", "Unit Info": "nM", "Qualifying Sign": "=", "Kb": 1.95}
{"Compound": "O=C1[C@H]2CCCC[C@H]2C(=O)N1[C@H]1CCCN(C[C@H]2COc3ccccc3O2)C1 [example 93, hydrochloride]", "Unit Info": "nM", "Qualifying Sign": "=", "Kb": 0.009}
{"Compound": "Cn1c(=O)n([C@H]2CCCN(C[C@H]3COc4ccccc4O3)C2)c2ccccc21 [example 147]", "Unit Info": "nM", "Qualifying Sign": "=", "Kb": 22.9}
{"Compound": "Fc1ccc2ncn([C@H]3CCCN(C[C@H]4COc5ccccc5O4)C3)c2c1 [example 82]", "Unit Info": "nM", "Qualifying Sign": "<", "Kb": 0.01}
{"Compound": "O=C1C(=O)N([C@H]2CCCN(C[C@H]3COc4ccccc4O3)C2)C(=O)N1C1CCCC1 [example 127]", "Unit Info": "nM", "Qualifying Sign": "=", "Kb": 0.003}
{"Compound": "O=C1CN(Cc2ccccc2)C(=O)N1[C@H]1CCCN(C[C@H]2COc3ccccc3O2)C1 [example 118]", "Unit Info": "nM", "Qualifying Sign": "<", "Kb": 0.01}
{"Compound": "COc1cccc2c1C(=O)N([C@H]1CCCN(C[C@H]3COc4ccccc4O3)C1)C2=O [example 65]", "Unit Info": "nM", "Qualifying Sign": "<", "Kb": 0.01}
{"Compound": "O=C1c2ccc(F)cc2C(=O)N1[C@H]1CCCN(C[C@H]2COc3ccccc3O2)C1 [example 62]", "Unit Info": "nM", "Qualifying Sign": "<", "Kb": 0.01}
{"Compound": "O=C1c2ccc(F)c(F)c2CN1[C@H]1CCCN(C[C@H]2COc3ccccc3O2)C1 [example 56, hydrochloride]", "Unit Info": "nM", "Qualifying Sign": "=", "Kb": 0.052}
{"Compound": "C[C@@]1(c2ccccc2)CCN([C@H]2CCCN(C[C@H]3COc4ccccc4O3)C2)C1=O [example 15]", "Unit Info": "nM", "Qualifying Sign": "=", "Kb": 36.6}
{"Compound": "O=C1c2ccncc2CN1[C@H]1CCCN(C[C@H]2COc3ccccc3O2)C1 [example 76]", "Unit Info": "nM", "Qualifying Sign": "=", "Kb": 178}
{"Compound": "CN(C)C(=O)CN1C(=O)N([C@H]2CCCN(C[C@H]3COc4ccccc4O3)C2)C(=O)C12CC2 [example 124]", "Unit Info": "nM", "Qualifying Sign": "=", "Kb": 0.131}
{"Compound": "O=C1c2scnc2CN1[C@H]1CCCN(C[C@H]2COc3ccccc3O2)C1 [example 79]", "Unit Info": "nM", "Qualifying Sign": "=", "Kb": 0.544}
{"Compound": "Cn1ncc2c1CN([C@H]1CCCN(C[C@H]3COc4ccccc4O3)C1)C2=O [example 80]", "Unit Info": "nM", "Qualifying Sign": ">", "Kb": 1010}
{"Compound": "COc1cc2c(cc1OC)C(=O)N([C@H]1CCCN(C[C@H]3COc4ccccc4O3)C1)C2 [example 68]", "Unit Info": "nM", "Qualifying Sign": "=", "Kb": 0.282}
{"Compound": "CCN1CCN([C@H]2CCCN(C[C@H]3COc4ccccc4O3)C2)C1=O [example 16]", "Unit Info": "nM", "Qualifying Sign": "=", "Kb": 0.06}
{"Compound": "CC(C)N1CC(=O)N([C@H]2CCCN(C[C@H]3COc4ccccc4O3)C2)C1=O [example 104]", "Unit Info": "nM", "Qualifying Sign": "=", "Kb": 1.01}
{"Compound": "O=C1c2cccc(F)c2C(=O)N1[C@H]1CCCN(C[C@H]2COc3ccccc3O2)C1 [example 63, hydrochloride]", "Unit Info": "nM", "Qualifying Sign": "<", "Kb": 0.01}
{"Compound": "C[C@@H](c1ccccc1)N1C(=O)C(=O)N([C@H]2CCCN(C[C@H]3COc4ccccc4O3)C2)C1=O [compound 133]", "Unit Info": "nM", "Qualifying Sign": "<", "Kb": 0.001}
{"Compound": "O=c1[nH]c2cc(F)ccc2n1[C@H]1CCCN(C[C@H]2COc3ccccc3O2)C1 [example 88]", "Unit Info": "nM", "Qualifying Sign": "<", "Kb": 0.01}
